Value source: PubChem BioAssay AID1159580

TEST_NAME: chemical genetic growth profiling, strain panel (AID 1159580);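 note: tested at 20 µM; growth read once vehicle control cultures reached saturation at 30 °C; 1 = growth at the plate median or of vehicle wells; lower values mean less growth of the strain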
ASSAY_CONDITIONS: S. cerevisiae deletion strains, growth OD, locus YJL092W, strain hpr5, active compounds read low
Among all 5,500 compounds or so, about 2,000 (36%) were called active. Another 18% or so got no clear call; they are omitted. The list shows a part of the results.
The entries below are paired with their reported normalized growth.
Respond with the number and no other words.

- CCCN(CCC)CCc1cccc2c1CC(=O)N2: 0.966
- O=C1CN(/N=C\c2ccc([N+](=O)[O-])o2)C(=O)N1: 0.971
- CCCCC(CC)CN=C(N)NC(N)=NCCCCCCN=C(N)NC(N)=NCC(CC)CCCC (stereo unspecified): 0.0605

In plain terms, O=C1N=C(O)CN1/N=C\c1ccc(-c2ccc([N+](=O)[O-])cc2)o1 has a documented normalized growth of 0.979

Quick note, normalized growth for NC(=O)N/N=C\c1ccc([N+](=O)[O-])o1 landed at 0.997

The recorded normalized growth for CCOC(N)=O is 0.995
